system: biofilm-producing Staphylococcus epidermidis strains; test: Biofilm eradication (MBEC Assay Kit); format: cell-based; details: clinical strain 78 (Table S4)
I'd appreciate it if you could supply MBEC values for the items below.
Field format: number, assumed µg/mL, no unit text.

Query: Which MBEC reading was recorded for the molecule O=S(=O)(NC1CCN(CCC(Oc2ccc(C(F)(F)F)cc2)c2ccccc2)CC1)c1cccc(Cl)c1 (stereo not shown) ?
Response: 31.25

Query: Which MBEC reading was recorded for the molecule O=C(Nc1cccc(Cl)c1)NC1CCN(CCC(Oc2ccc(C(F)(F)F)cc2)c2cccs2)CC1 (stereo not shown) ?
Response: 7.8

Query: Which MBEC reading was recorded for the molecule O=S(=O)(NC1CCN(CCC(Oc2ccc(C(F)(F)F)cc2)c2cccs2)CC1)c1cccc(Cl)c1 (stereo not shown) ?
Response: 31.25

Query: Which MBEC reading was recorded for the molecule CC(=O)NC[C@H]1CN(c2ccc(N3CCOCC3)c(F)c2)C(=O)O1 [linezolid, reference compound] ?
Response: 15.6

----------
system: clinical MDR Staphylococcus epidermidis isolates; test: MIC, broth microdilution, 81 clinical MDR strains; assay type: cell-based; conditions: Staphylococcus epidermidis, clinical strain 63 (Table S2); read-out: MIC
I'd appreciate it if you could supply MIC values for the items below.
Field format: number, assumed µg/mL, no unit text.

Query: Which MIC reading was recorded for the compound O=C(Nc1cccc(Cl)c1)NC1CCN(CCC(Oc2ccc(C(F)(F)F)cc2)c2cccs2)CC1 (stereo not drawn) ?
Response: 1.6

Query: Which MIC reading was recorded for the compound O=S(=O)(NC1CCN(CCC(Oc2ccc(C(F)(F)F)cc2)c2ccccc2)CC1)c1cccc(Cl)c1 (stereo not drawn) ?
Response: 1.6

Query: Which MIC reading was recorded for the compound O=S(=O)(NC1CCN(CCC(Oc2ccc(C(F)(F)F)cc2)c2cccs2)CC1)c1cccc(Br)c1 (stereo not drawn) ?
Response: 50

Query: Which MIC reading was recorded for the compound O=S(=O)(NC1CCN(CCC(Oc2ccc(C(F)(F)F)cc2)c2cccs2)CC1)c1cccc(Cl)c1 (stereo not drawn) ?
Response: 0.4

Query: Which MIC reading was recorded for the compound O=S(=O)(NC1CCN(CCC(Oc2ccc(C(F)(F)F)cc2)c2cccs2)CC1)c1cccc(C(F)(F)F)c1 (stereo not drawn) ?
Response: 50

Query: Which MIC reading was recorded for the compound CC(=O)NC[C@H]1CN(c2ccc(N3CCOCC3)c(F)c2)C(=O)O1 [linezolid, reference compound] ?
Response: 0.8

----------
tested on: biofilm-producing Staphylococcus epidermidis strains; assay: Inhibition of biofilm formation (MBIC, resazurin); format: cell-based; conditions: clinical strain 40 (Table S4)
PARAMETER MEASURED: MBIC (µg/mL)
Field format: number, assumed µg/mL, no unit text.

Query: Which MBIC reading was recorded for the compound O=S(=O)(NC1CCN(CCC(Oc2ccc(C(F)(F)F)cc2)c2ccccc2)CC1)c1cccc(Cl)c1 (stereo not shown) ?
Response: 125

Query: Which MBIC reading was recorded for the compound O=S(=O)(NC1CCN(CCC(Oc2ccc(C(F)(F)F)cc2)c2cccs2)CC1)c1cccc(Cl)c1 (stereo not shown) ?
Response: 31.25

Query: Which MBIC reading was recorded for the compound O=C(Nc1cccc(Cl)c1)NC1CCN(CCC(Oc2ccc(C(F)(F)F)cc2)c2cccs2)CC1 (stereo not shown) ?
Response: 15.6

Query: Which MBIC reading was recorded for the compound CC(=O)NC[C@H]1CN(c2ccc(N3CCOCC3)c(F)c2)C(=O)O1 [linezolid, reference compound] ?
Response: 25
